System: recombinant human mPGES-1 (Homo sapiens)
Sequence (O14684 whole entry): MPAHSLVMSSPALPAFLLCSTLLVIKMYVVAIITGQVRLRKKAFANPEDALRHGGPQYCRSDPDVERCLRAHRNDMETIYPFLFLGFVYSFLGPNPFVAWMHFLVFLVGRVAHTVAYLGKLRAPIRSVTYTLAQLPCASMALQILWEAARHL
Assay text: Assay B: mPGES-1 enzyme assay (modified)
Format: biochemical
Assay context: biological assay B (all other compounds); PGH2 final conc. 2 μM, HTRF; read-out: mPGES-1 inhibitory effect IC50
pIC50: −log10 of the molar value.
The label depends only on pIC50: rule met if it is at least 8, rule not met if it is smaller.

Record excerpt, results attached:
Cc1ccc(Cl)cc1NC(=O)c1cc(NC(=O)c2cc(CNC(=O)C(C)(C)C(F)(F)F)ccc2Cl)ccc1OCC(F)F	rule met
CNC(=O)c1cc(NC(=O)c2cc(CNC(=O)C(C)(C)C(F)(F)F)ccc2Cl)ccc1OCC(F)F	rule not met
CC(C)(C)C(=O)NCc1ccc(C(F)(F)F)c(C(=O)Nc2ccc(OCC(F)F)c(C(=O)Nc3ccc(Br)cc3)c2)c1	rule met

Is pIC50 for CC(C)(C)NC(=O)c1cc(NC(=O)c2c(Cl)ccc(CNC(=O)C(C)(C)C(F)(F)F)c2F)ccc1OCC(F)F at or above 8?
rule met

Is pIC50 for CC(C)(C(=O)NCc1ccc(Cl)c(C(=O)Nc2ccc(OCC(F)F)c(C(=O)Nc3ccc(Cl)c(F)c3)c2)c1Cl)C(F)(F)F at or above 8?
rule met

Is pIC50 for CC1CCC(NC(=O)c2cc(NC(=O)c3cc(CNC(=O)C(C)(C)C(F)(F)F)ccc3Cl)ccc2OCC(F)F)CC1 (centres unmarked) at or above 8?
rule met

Is pIC50 for Cn1cccc1C(=O)NCc1ccc(Cl)c(C(=O)Nc2ccc(OCC(F)F)c(C(=O)Nc3ccc(Br)cc3)c2)c1 at or above 8?
rule not met

###

System: recombinant human mPGES-1 (Homo sapiens)
Assay text: Assay B: mPGES-1 enzyme assay (modified)
Assay type: biochemical
Assay context: biological assay B (all other compounds); PGH2 final conc. 2 μM, HTRF; read-out: mPGES-1 inhibitory effect IC50
In this section, each of the compounds is paired with its reported IC50.
Please answer using a numeric value trailed by its unit.

These recorded examples may help you get a feel for the data.
CC1(NC(=O)c2cc(NC(=O)c3c(Cl)ccc(CNC(=O)C(C)(C)C(F)(F)F)c3Cl)ccc2OCC(F)F)CCOCC1	150 nM
COc1cc(Cl)ccc1NC(=O)c1cc(NC(=O)c2c(Cl)ccc(CNC(=O)C(C)(C)C(F)(F)F)c2Cl)ccc1OCC(F)F	2 nM
CC(C)(C(=O)NCc1ccc(Cl)c(C(=O)Nc2ccc(OCC(F)F)c(C(=O)NCc3ncccc3C(F)(F)F)c2)c1)C(F)(F)F	5 nM

// fetch IC50; item: CC(N)(C(=O)NCc1ccc(Cl)c(C(=O)Nc2ccc(OCC(F)F)c(C(=O)Nc3ccc(Br)cc3)c2)c1)C(F)(F)F (stereo not drawn) ; system: recombinant human mPGES-1 (Homo sapiens)
6 nM

// fetch IC50; item: CC1(C)CC1CNC(=O)c1cc(NC(=O)c2cc(CNC(=O)C(C)(C)C(F)(F)F)ccc2Cl)ccc1OCC(F)F (stereo not drawn) ; system: recombinant human mPGES-1 (Homo sapiens)
5 nM

// fetch IC50; item: O=C(Nc1ccc(OCC(F)F)c(C(=O)Nc2ccc(Br)cc2)c1)c1cc(CNC(=O)C(O)C(F)(F)F)ccc1Cl (stereo not drawn) ; system: recombinant human mPGES-1 (Homo sapiens)
9 nM

###

In this section, each of the molecules is paired with its reported IC50.
System: recombinant human mPGES-1 (Homo sapiens)
Assay text: Assay B: mPGES-1 enzyme assay (modified)
Assay type: biochemical
Assay context: biological assay B (all other compounds); PGH2 final conc. 2 μM, HTRF; read-out: mPGES-1 inhibitory effect IC50
State the answer as a number, implicitly in nM.

CC(C)(C(=O)NCc1ccc(Cl)c(C(=O)Nc2ccc(OCC(F)F)c(C(=O)Nc3cc(F)cc(Cl)c3)c2)c1)C(F)(F)F	4

For CC(C)(C(=O)NCc1ccc(Cl)c(C(=O)Nc2ccc(OCC(F)F)c(C(=O)Nc3ccncc3Cl)c2)c1)C(F)(F)F , write its IC50.
9

For CC(C)(C(=O)NCc1ccc(Cl)c(C(=O)Nc2ccc(N3CCC(F)CC3)c(C(=O)Nc3ccc(F)c(Cl)c3)c2)c1F)C(F)(F)F , write its IC50.
2
